Molecular target: T1, IL-18 receptor (IL-18Rαβ) on cells (UniProt Q13478 19-541; O95256 20-599, limits assumed)
T1 sequence (looked up) 1: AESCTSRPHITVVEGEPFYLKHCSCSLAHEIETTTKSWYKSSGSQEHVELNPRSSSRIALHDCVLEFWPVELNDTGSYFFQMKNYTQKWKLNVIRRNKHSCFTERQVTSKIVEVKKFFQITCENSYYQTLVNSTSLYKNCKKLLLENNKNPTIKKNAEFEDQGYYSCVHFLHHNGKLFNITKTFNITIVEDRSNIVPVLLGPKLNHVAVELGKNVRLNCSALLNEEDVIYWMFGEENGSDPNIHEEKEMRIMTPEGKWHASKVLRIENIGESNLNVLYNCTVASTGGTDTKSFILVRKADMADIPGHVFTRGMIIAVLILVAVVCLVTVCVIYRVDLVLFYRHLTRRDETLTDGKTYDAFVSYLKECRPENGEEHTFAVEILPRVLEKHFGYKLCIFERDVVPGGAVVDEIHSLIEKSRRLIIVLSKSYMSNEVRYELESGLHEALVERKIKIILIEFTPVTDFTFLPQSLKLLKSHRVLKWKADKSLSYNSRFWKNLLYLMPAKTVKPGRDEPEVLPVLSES
T1 sequence (looked up) 2: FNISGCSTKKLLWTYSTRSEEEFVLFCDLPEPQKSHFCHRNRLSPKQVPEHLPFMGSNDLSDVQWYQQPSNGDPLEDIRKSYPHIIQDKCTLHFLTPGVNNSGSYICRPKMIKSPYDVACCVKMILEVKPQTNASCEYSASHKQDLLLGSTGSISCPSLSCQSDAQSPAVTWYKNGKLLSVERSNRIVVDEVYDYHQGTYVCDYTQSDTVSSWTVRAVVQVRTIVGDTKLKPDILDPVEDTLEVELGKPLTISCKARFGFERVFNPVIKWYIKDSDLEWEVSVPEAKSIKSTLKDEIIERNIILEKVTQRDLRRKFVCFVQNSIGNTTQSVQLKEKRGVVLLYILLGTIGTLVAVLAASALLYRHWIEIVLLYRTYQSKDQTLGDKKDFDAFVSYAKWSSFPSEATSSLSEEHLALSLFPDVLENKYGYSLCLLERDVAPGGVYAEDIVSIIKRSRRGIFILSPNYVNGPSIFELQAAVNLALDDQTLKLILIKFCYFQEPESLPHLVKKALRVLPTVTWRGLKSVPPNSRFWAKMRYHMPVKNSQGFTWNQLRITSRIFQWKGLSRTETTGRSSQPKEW
Assay: cell-based or functional assay
EC50 (nM), IFNγ induction, NK-92 cells under 0.06 nM gets 1.0, anything at or over 0.06 nM gets 0.0.

Completed entries (count: 5):
IL-18 polypeptide SEQ ID NO: 50 (E06K, K53A, T63A) (ligand) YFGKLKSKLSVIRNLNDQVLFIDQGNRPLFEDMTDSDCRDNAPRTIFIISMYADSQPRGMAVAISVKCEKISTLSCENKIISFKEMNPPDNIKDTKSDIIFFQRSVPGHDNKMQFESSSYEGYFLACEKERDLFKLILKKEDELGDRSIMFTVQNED
1.0
IL-18 polypeptide SEQ ID NO: 55 (K53A, T63A, C38S, C68S, C76S, C127S, K70C) (ligand) YFGKLESKLSVIRNLNDQVLFIDQGNRPLFEDMTDSDSRDNAPRTIFIISMYADSQPRGMAVAISVKSECISTLSSENKIISFKEMNPPDNIKDTKSDIIFFQRSVPGHDNKMQFESSSYEGYFLASEKERDLFKLILKKEDELGDRSIMFTVQNED
0.0
C144 (V11I, C38A, K53A, T63A, C76A, C127A) (ligand) YFGKLESKLSIIRNLNDQVLFIDQGNRPLFEDMTDSDARDNAPRTIFIISMYADSQPRGMAVAISVKCEKISTLSAENKIISFKEMNPPDNIKDTKSDIIFFQRSVPGHDNKMQFESSSYEGYFLAAEKERDLFKLILKKEDELGDRSIMFTVQNED
0.0
C167 (V11I, C38A, C76A, S105I, C127A) (ligand) YFGKLESKLSIIRNLNDQVLFIDQGNRPLFEDMTDSDARDNAPRTIFIISMYKDSQPRGMAVTISVKCEKISTLSAENKIISFKEMNPPDNIKDTKSDIIFFQRIVPGHDNKMQFESSSYEGYFLAAEKERDLFKLILKKEDELGDRSIMFTVQNED
0.0
IL-18 polypeptide SEQ ID NO: 43 (E06K, K53A, S55A, Y01G) (ligand) GFGKLKSKLSVIRNLNDQVLFIDQGNRPLFEDMTDSDCRDNAPRTIFIISMYADAQPRGMAVTISVKCEKISTLSCENKIISFKEMNPPDNIKDTKSDIIFFQRSVPGHDNKMQFESSSYEGYFLACEKERDLFKLILKKEDELGDRSIMFTVQNED
0.0

# next binder below
Q: Is 0.06 nM strictly greater than the binder's reported EC50 (nM), IFNγ induction, NK-92 cells? binder: C149 (V11I, E31A, C38A, K53A, C76A, C127A) (ligand) YFGKLESKLSIIRNLNDQVLFIDQGNRPLFADMTDSDARDNAPRTIFIISMYADSQPRGMAVTISVKCEKISTLSAENKIISFKEMNPPDNIKDTKSDIIFFQRSVPGHDNKMQFESSSYEGYFLAAEKERDLFKLILKKEDELGDRSIMFTVQNED
Result: 1.0
